Tested on: MS2 coat protein
Assay: apparent KD of MS2 coat protein; higher = weaker reporter binding
Details: Eterna round: R107; input ligand: theophylline 2 mM
Mark 0 for apparent KD of MS2 coat protein values under 30 nM, and 1 for everything at or above.

Before answering, review these 5 worked examples.
Is it the case that GGAUAGGACAGAAGGAGCGACAUGCGACGAAAGUCGAAAAGAUCACAUGAGGAUCACCCAUGUCAGGUAGGUCGCUGUCCUAUCG [ArgXB 10 #Zipper #MS2Left #StaticStem #Blueprint] has apparent KD of MS2 coat protein reaching or exceeding 30 nM?
1

Same for AACAUGAGGAUCACCCAUGUCUGAACUGAAGGAGCGCUAAAUAAGGCAGGUAGGUCGCGGAAUUUUAUAUAUAUAUAUAUAUGGG [9.E]
1

Same for CGCUACAUAGCGGCCGCCACUGUCAUGGCUACGAUAGGUCACUCGUACAUGAGGAUCACCCAUGUCAGGACCGGGCUAUCCUCGC [theeternabot_exclusion_MS2_Trp_B_20]
1

Same for GUCCUAGCGAGCACUCGCUAGGACGCGGAUACCAGCGAGGUCCAUCGCCCUUGGCAGCCGAACAUGAGGAUCACCCAUGUCGGUA [#1 Same State - Theophylline A Attempt #17 (HarryS)]
0

Same for GGUGGCGUGACGGAUACCAGCCACCGCCGCAAGGCAACAUGAGGAUCACCCAUGUUGGGUGGCCCUUGGCAGCUGUCGUGCGGCG [#1 Same State - Theophylline B Attempt #22 (HarryS)]
1

Next:
Is it the case that GGUUACUCUACGGCCGCCACUGGGCAUGUAAAUAACAUGAGGAUCACCCAUGUGGAUUAAUAUUACAGGACCGGGUAGUGUAACC [Tryptophan B 23] has apparent KD of MS2 coat protein reaching or exceeding 30 nM?
1

Same for AGUAACAUGAGGAUCACCCAUGUAUGAGAAGGAGCGUGUUUUAACACAGGUAGGUCGCUCAAUAUUAUUUACUAGCGAAAGCUAG [JR_SSArginiA_Sub007]
0

Same for UUAUAAGUACCGGUCCUCAGAUCCUCAUGACGAGGACCGGUACGGCCGCCACUCGAAACAUGAGGAUCACCCAUGUAAUAAUAAC [Brourdmod04]
1

* * *

System: K4 kissing-loop RNA reporter;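 also: bound reporter read as fluorescence of individual clusters on recovered sequencing chips by microscopy, with normalized cluster intensities fitted with a binding model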
Test: apparent KD of K4 kissing-loop reporter; higher = weaker reporter binding
Conditions: Eterna round: R107; input ligand: arginine 13.2 mM
measured parameter: apparent KD of K4 kissing-loop reporter (nM)
Please reply with the bare figure in nM and do not write the unit itself.

Here are 4 sequences together with their reported answers.
// query apparent KD of K4 kissing-loop reporter value for entry AUUAAUUUCAGAGGAUAUGCUUUAUUAUUAUUUUUAAAUAAUAUAAGCAGUGAUGUUGCUUUUUAUGCAGAAGGCUGAUUUAUAA [JR_SSFMNB_Sub016]
397

Same for GCAGUGAUGUUGCGCGGGUACGGUAGAGUACGAGGACCGGUACGGCCGCCACUCGUACGGAACUGGCUAAUUUAUGGAAUGGUGA [IV]
198

Same for GUACGCUCCCGAGUGAUGUUCGGUAAUCGCUAGGAUAUCGCUUUUGCGAGAAGGAGCGGAAUGAGGAAACUCGUUCUGAGUGUAC [FMN A 26]
254

Same for GCAGGACGAGGAGGAGGAUGAAUUACUGAAGGAGCGCAUAUUGUUGCAGGUAGGUCGCGGUAAACAAGUAUAGUGAUGUUAUAUC [SSArgA.O]
270

Next:
// query apparent KD of K4 kissing-loop reporter value for entry UGUACCGAGUCAGGAUAUGGCGUCGAAAGACGAAUCGUAGUGAUGUUACGGAUCUGCGAAAGCAGUCCAGAAGGGACUUGGUACU [FmnBS 26 G37+C49]
172

Same for AAGGGCUAGGCGGCCGCCACUGGUCGUGUACACAUACAAACCAGUGAUGUUGGUAUUGUAUGCGACAGGACCGGGCCUAGCCGAA [Exclusion - Tryptophan B (Freestyle 28)]
229

* * *

Tested on: MS2 coat protein
Assay: apparent KD of MS2 coat protein; designed switch direction (-1 OFF switch, 1 ON switch): -1; higher = weaker reporter binding
Conditions: Eterna round: R95; input ligand: microRNA oligo, concentration not stated
Mark condition not met for apparent KD of MS2 coat protein values under 30 nM, and condition met for everything at or above.

Before answering, review these 4 worked examples.
Is it the case that UCCUAACAUGAGGAUCACCCAUGUCAGGAUAUGAUACUAUGUACUUCGGUACAUAGUAUCAGAAGGGACAUCCU [Ex1-3: 9] (puzzle: Exclusion 1) has apparent KD of MS2 coat protein reaching or exceeding 30 nM?
condition not met

Same for AAAACUGCCCAUAACCGCAAGCUUUUUGCUUGUCUUACCACAUGAGGAUCACCCAUGUGACAUGGGCUCCUUAUAAA [Arixeerat] (puzzle: Sensor v3, turn-off variant 2)
condition not met

Same for AAUAACAGGCCGAUCCUAAACAUGAGGAUCACCCAUGUGCUCGUCUUGUAAAGUACUAUCACGAAAGUGAUAGUACA [Sensor v3, turn-off variant 1 (MOD of Eli's v1-59 v.2 )] (puzzle: Sensor v3, turn-off variant 1)
condition met

Same for UACCGGCGGACCGAAGCUUUUUGCUUGUCUUAUACUACGACAUGAGGAUCACCCAUGUGGUGGUGGUCCGUUGUAGU [JL ViennaUCT Bitein mod 3] (puzzle: Sensor v3, turn-off variant 2)
condition not met

Okay, now this sequence:
Is it the case that AGCAUGGUAGGAUAUACGGAACAUUAGGGUUUGUUAUGUGGACAUGAGGAUCACCCAUGUAGAAGGGCCGUGCA [Mat - Exclusion 2 - Mod of JL - D80] (puzzle: Exclusion 2) has apparent KD of MS2 coat protein reaching or exceeding 30 nM?
condition met

* * *

Test system: MS2 coat protein
Experiment: apparent KD of MS2 coat protein; designed switch direction (-1 OFF switch, 1 ON switch): -1; higher = weaker reporter binding
Details: input ligand: none
apparent KD of MS2 coat protein overview
Give the number first and the unit second.

Here are 3 sequences together with their reported answers.
// query apparent KD of MS2 coat protein value for entry GGCACACAUGAGGAUCACCCAUGUGAGGAUAUGUGGCGAUCGUCGAAAGACGAUAGCCACAGAAGGCACAGGCC [Eli x1 4.24] (Eterna round: R97, puzzle: Exclusion 1)
17.8 nM

Same for GUAUGUCUAGGAUAUAUAUUGGAAUGUCCGUGUCCUAGCCAACAUGAGGAUCACCCAUGUAGAAGGAGAUGUGU [Eternabot (L1) Solution 97] (Eterna round: R97, puzzle: Exclusion 2)
52.8 nM

Same for AUCAGCUCGUGAGGAUAUACAUGCGUGCUUCGGCACGUAUGAUAGAUCACAUGAGGAUCACCCAUGUAGAAGGCACGAGCUGAU [ENG2/4-A3] (Eterna round: R96, puzzle: Exclusion NG 2)
13.4 nM

Next:
// query apparent KD of MS2 coat protein value for entry GCCUCACUUGAGGAUCACCCAAGUCAGGAUAUCUACAGGCCGGCCAUACCGACCUGCAAGAGAAGGGACUCUAA [Aristi] (Eterna round: R97, puzzle: Exclusion 1)
31.4 nM

Same for GCCGAAAGUGUGAGGAUAUACCUAUGGAUACAUAGGUAGAAGGCACAUGAGGAUCACCCAUGUGUCCAAACGGC [Eli bmx4 4.23] (Eterna round: R97, puzzle: Brourd's mod of Exclusion 4)
21.7 nM

Same for UAUUAGCAAGCGAGAUCCCACAUGAGGAUCACCCAUGUAAAGCAUCCAGAAUUACUGGGUGCAAAAGCUCGUCUUAU [Winner reversed engineered 6] (Eterna round: R97, puzzle: Sensor, turn-off variant 1)
31.7 nM

Same for AAAAUAAAGAUGCCUUUAAACAUGAGGAUCACCCAUGUGAGUAAGGAUAUCGGAACCAAUCGCGACGAGAAGGUACUCGCGUGU [Relela] (Eterna round: R96, puzzle: Exclusion NG 3)
15.7 nM

Same for GGGUGCAGGCUGGGAUCCUACAUGAGGAUCACCCAUGUGGUCCGGUGACGUGAGUCACCGGACUUAGCUCGUCUUGU [salish99_S_TOV1_R5_008] (Eterna round: R97, puzzle: Sensor, turn-off variant 1)
865 nM

Same for GUGAGCAGACGGAGAUCCAACAUGAGGAUCACCCAUGUCUCACUAGCUUUUUGCUCGUCUUAUCCUCCUCUGUUCAC [Elimod 23 - Jieux - Sensor, turn-off variant 1] (Eterna round: R97, puzzle: Sensor, turn-off variant 1)
16.2 nM

* * *

Test system: MS2 coat protein
Assay: apparent KD of MS2 coat protein; higher = weaker reporter binding
Conditions: Eterna round: R107; input ligand: theophylline 2 mM
Mark Not met for apparent KD of MS2 coat protein values under 100 nM, and Met for everything at or above.

Before answering, review these 3 worked examples.
Is it the case that UUUGGCGGCGAUCUGGGUUUCCCAGAUCGGCGAGGACCGGUACGGCCGCCACUCGUGUUUCUUUGACAUGAGGAUCACCCAUGUA [whbob_SS_trypto A_f4] has apparent KD of MS2 coat protein reaching or exceeding 100 nM?
Not met

Same for ACGGAUCGGAAACGAUCCGCGGCAAGGGUACGAGGACCGGUACGGCCGCCACUCGGCUAACAUGAGGAUCACCCAUGUCCGAAGA [ETA NP+V+V2 #8]
Not met

Same for GGAUAGGACACGGCCGCCACUGCCUAGGAUACUAGAAACAUUUCCUCACAUGAGGAUCACCCAUGUAGGACCGGGUGUCCUAUCG
Met

Next:
Is it the case that CUAUUUAUAGCGGCCGCCACUUACUCAUGAGGUAACAACAUGAGGAUCACCCAUGUUUGAGGAUCAAGGACCGGGCUAUAGAUAG [AstrosSSTryB#11] has apparent KD of MS2 coat protein reaching or exceeding 100 nM?
Not met
